Each item that follows carries a reported pKi.
# experimentalSystem: Sodium-dependent serotonin transporter (Rattus norvegicus)
# Sequence (P31652 whole entry): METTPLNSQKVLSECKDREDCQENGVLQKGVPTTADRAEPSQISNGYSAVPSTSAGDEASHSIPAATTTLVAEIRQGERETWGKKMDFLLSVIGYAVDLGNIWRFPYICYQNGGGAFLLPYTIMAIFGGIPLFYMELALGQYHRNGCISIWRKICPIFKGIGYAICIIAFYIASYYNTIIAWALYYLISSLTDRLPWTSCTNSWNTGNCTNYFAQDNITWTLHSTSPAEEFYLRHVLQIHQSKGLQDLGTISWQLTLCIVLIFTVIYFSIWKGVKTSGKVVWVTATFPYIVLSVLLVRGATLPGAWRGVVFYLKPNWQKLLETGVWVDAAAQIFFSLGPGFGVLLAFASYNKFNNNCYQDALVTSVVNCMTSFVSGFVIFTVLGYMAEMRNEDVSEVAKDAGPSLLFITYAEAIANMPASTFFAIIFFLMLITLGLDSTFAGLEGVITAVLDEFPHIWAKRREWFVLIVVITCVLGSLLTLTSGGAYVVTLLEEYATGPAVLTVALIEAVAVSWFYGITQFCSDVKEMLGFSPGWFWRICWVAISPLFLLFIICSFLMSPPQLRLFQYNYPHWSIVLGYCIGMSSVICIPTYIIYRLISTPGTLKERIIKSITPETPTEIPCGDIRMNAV
pKi: −log10 of the molar value.
assayMetric: pKi

{"molecule": "Cc1ccccc1-c1c(=O)n(CCCCN2CCCC(c3c[nH]c4ccc(F)cc34)C2)c(=O)n2ccccc12 (stereo not given)", "valueReported": 6.47}
{"molecule": "Cc1ccccc1-c1c(=O)n(CCCCN2CCCC(c3c[nH]c4ccccc34)C2)c(=O)n2ccccc12 (stereo not given)", "valueReported": 7.12}
{"molecule": "Cc1ccc(-c2c(=O)n(CCCCN3CCCC(c4c[nH]c5ccc(F)cc45)C3)c(=O)n3ccccc23)cc1 (stereo not given)", "valueReported": 6.87}
{"molecule": "COc1ccc2[nH]cc(C3CCCN(CCCCn4c(=O)c(-c5ccc(Cl)cc5)c5ccccn5c4=O)C3)c2c1 (stereo not given)", "valueReported": 6.31}
{"molecule": "O=c1c(-c2ccc(Cl)cc2)c2ccccn2c(=O)n1CCCCN1CCCC(c2c[nH]c3ccc(F)cc23)C1 (stereo not given)", "valueReported": 7.07}
{"molecule": "Cc1ccc(-c2c(=O)n(CCCCN3CCCC(c4c[nH]c5ccccc45)C3)c(=O)n3ccccc23)cc1 (stereo not given)", "valueReported": 6.68}
{"molecule": "COc1ccccc1-c1c(=O)n(CCCCN2CCCC(c3c[nH]c4ccc(F)cc34)C2)c(=O)n2ccccc12 (stereo not given)", "valueReported": 6.93}
{"molecule": "COc1ccc2[nH]cc(C3CCCN(CCCCn4c(=O)c(-c5ccccc5F)c5ccccn5c4=O)C3)c2c1 (stereo not given)", "valueReported": 5.78}
{"molecule": "COc1ccccc1-c1c(=O)n(CCCCN2CCCC(c3c[nH]c4ccccc34)C2)c(=O)n2ccccc12 (stereo not given)", "valueReported": 6.39}
{"molecule": "O=c1c(-c2ccccc2F)c2ccccn2c(=O)n1CCCCN1CCCC(c2c[nH]c3ccccc23)C1 (stereo not given)", "valueReported": 6.62}
